compounds and their reported GI50
Tested on: SF-268
Experiment: NCI tumour cell line growth inhibition, 48 h
Calls of active or inactive are those of the source. Cut-off read from the data, not from the text of the source: active = GI50 up to about 1.1 µM and inactive = higher.
Measurement kind: GI50

>>> value_measured("Cc1cn(C2CC(ON3C(=O)c4ccccc4C3=O)C(CO)O2)c(=O)[nH]c1=O (stereo not drawn)")
"> 10 µM (inactive)"
>>> value_measured("CC(C)=CCC[C@@H](C)C1=CC(=O)C(C)=C(O)C1=O")
"10.4 µM (inactive)"
>>> value_measured("COc1ccc(CNc2cnc3cc(N)ccc3n2)cc1")
"> 100 µM (inactive)"
>>> value_measured("Nc1ccccc1.O=P(O)(OP(=O)(O)c1ccccc1)c1ccccc1")
"> 100 µM (inactive)"
>>> value_measured("CC(=O)Nc1ccc(S(=O)(=O)Nc2nnc(S(N)(=O)=O)s2)cc1")
"> 100 µM (inactive)"
>>> value_measured("Cc1[nH]n(-c2ccc(S(=O)(=O)O)cc2)c(=O)c1/N=N/c1ccccc1")
"50.7 µM (inactive)"
>>> value_measured("Cc1n[nH]c(=O)n1C1CCCC1")
"> 100 µM (inactive)"
>>> value_measured("CC(C)C(NCc1c2ccccc2nc2ccccc12)C(=O)O (stereo not drawn)")
"36.7 µM (inactive)"
>>> value_measured("CC(=O)C1C(=O)C(=O)N(c2cccc([N+](=O)[O-])c2)C1=O (stereo not drawn)")
"> 100 µM (inactive)"
>>> value_measured("CCOC(=O)C1Cc2ccc(C)cc2C1=O (stereo not drawn)")
"79.3 µM (inactive)"
>>> value_measured("CCOC(=O)c1cnc2sc3ccc4ccccc4c3n2c1=O")
"92.7 µM (inactive)"
>>> value_measured("CC1(C)N=C(N)N=C(N)N1c1cccc(OCc2cccc(N)c2)c1")
"14.3 µM (inactive)"
>>> value_measured("COc1ccc(-c2c(C3=NCCN3)nnn2-c2ccccc2)cc1")
"> 100 µM (inactive)"
>>> value_measured("CSc1ccc(C2OC(=O)c3ccccc32)c2ccccc12 (stereo not drawn)")
"> 100 µM (inactive)"
>>> value_measured("Cc1cc2c(c(O)c1-c1c(C)cc(O)c3c1C(=O)C=CC3=O)C(=O)C=CC2=O")
"1.92 µM (inactive)"
>>> value_measured("Cc1ccc(OC(=O)N2C/C(=C\\c3ccccc3)C(=O)/C(=C/c3ccccc3)C2)cc1")
"34.1 µM (inactive)"
>>> value_measured("CC(=O)n1nc(-c2ccccc2)n(/N=C/c2ccc([N+](=O)[O-])cc2)c1=O")
"43.5 µM (inactive)"
>>> value_measured("CN(C)CCOc1cccc2c1C(=O)c1ccccc1C2=O")
"9.79 µM (inactive)"
>>> value_measured("O=c1cc(C(F)(F)F)c2cc3c(cc2o1)NCCC3")
"24.5 µM (inactive)"
>>> value_measured("Nc1cccc(/C=C/CN2CCN(CCOC(c3ccccc3)c3ccccc3)CC2)c1")
"17.7 µM (inactive)"
>>> value_measured("Cc1cn(S(=O)(=O)c2ccccc2)c2c(OCc3ccccc3)cc(NS(C)(=O)=O)cc12")
"14 µM (inactive)"
>>> value_measured("C=C(C)[C@H]1CC[C@@]2(C)C(C1)[C@H](C)CC[C@@H]2O (stereo partly drawn)")
"> 100 µM (inactive)"
>>> value_measured("CN(CC(=O)O)Cc1c[nH]c2ccccc12")
"> 100 µM (inactive)"

###

Tested on: Hs-578T
Assay: NCI tumour cell line growth inhibition, 48 h
Calls of active or inactive are those of the source. Rule as the data show it: active = GI50 up to about 1.1 µM and inactive = higher.
Catalogue of compounds with associated GI50
Measurement kind: GI50

>>> value_measured("CC1=NN(c2nc(N)nc(CBr)n2)C(C)(C)C1")
"13.9 µM (inactive)"
>>> value_measured("NC(=S)NS(=O)(=O)c1ccc(F)cc1F")
"> 100 µM (inactive)"
>>> value_measured("CC(=O)N1C(C(=O)NNc2ccccc2)CSC1c1ccccc1 (stereo not given)")
"> 100 µM (inactive)"
>>> value_measured("O=c1c(C(c2ccc(C(c3c(O)oc4cc(O)ccc4c3=O)c3c(O)oc4cc(O)ccc4c3=O)cc2)c2c(O)oc3cc(O)ccc3c2=O)c(O)oc2cc(O)ccc12")
"> 100 µM (inactive)"
>>> value_measured("CC(C)(CN)SCc1ccccc1")
"> 100 µM (inactive)"
>>> value_measured("C/C(=N/NC(=S)N1CCCCCC1)c1cccc(/C(C)=N\\NC(=S)N2CCCCCC2)n1")
"5.2 µM (inactive)"
>>> value_measured("C=C1C(=O)O[C@@H]2[C@@H]3O[C@@H](C[C@@H]13)[C@](C)(O)CC/C=C(\\C)CCC[C@@H]2C")
"17.4 µM (inactive)"
>>> value_measured("CCCCC1=C(C(=O)N2CCOCC2)C2(OCCO2)C1Cl (stereo not given)")
"30.1 µM (inactive)"
>>> value_measured("C[N+]1(CCC[N+]2(C)CC3C4C=CC(CC4)C3C2)CCOCC1 (stereo not given)")
"> 100 µM (inactive)"
>>> value_measured("CSc1nc(SC)c2c(CO)c(Br)n(Cc3ccccc3)c2n1")
"19.1 µM (inactive)"

###

Test system: OVCAR-3
Assay: NCI tumour cell line growth inhibition, 48 h
Active and inactive are the calls of the source. Cut-off read from the data, not from the text of the source: active = GI50 up to about 1.1 µM and inactive = higher. Starred links: 1 amine or outer side, 2 acyl side, 3 side chain; linkers in the order of their positions; H or OH if unused. Positions of bridges follow the written chain, without caps; N, C: chain ends. Non-standard residues stand in square brackets, D forms with d. Residues, ends and D or L forms follow the SMILES beside them. Chains are numbered I, II in the order given. Actinocin(1to9) = Cc1c2oc3c(C)ccc(C(=O)[*:2])c3nc-2c(C(=O)[*:1])c(N)c1=O; aThr = C[C@H](O)[C@H](N)C(=O)O; NMeV = CN[C@H](C(=O)O)C(C)C; Sar = CNCC(=O)O
Outcomes: active, inactive

>>> group_label("O=C(O)CCC(NC(=O)c1ccc(Nc2nc3cc(C(F)(F)F)ccc3nc2-c2ccccc2)cc1)C(=O)O (stereo unspecified)")
"inactive"
>>> group_label("CCNC(=O)Nc1ccccn1")
"inactive"
>>> group_label("COc1ccc2c(c1)-c1nc(=S)n(CCCN(C)C)c3ccc([N+](=O)[O-])c(c13)N2")
"inactive"
>>> group_label("c1ccc2c3c(c(N4CCNCC4)nc2c1)CCCC3")
"inactive"
>>> group_label("COc1ccc(C=O)cc1OS(=O)(=O)C(F)(F)C(F)(F)C(F)(F)C(F)(F)F")
"inactive"
>>> group_label("COC(=O)c1ccccc1CC1Cc2ccc3c(c2C1)CCC3 (stereo unspecified)")
"inactive"
>>> group_label("Cc1ccc(OC(=O)N2C/C(=C\\c3ccccc3)C(=O)/C(=C/c3ccccc3)C2)cc1")
"inactive"
>>> group_label("Cc1c2oc3c(C)ccc(C(=O)N[C@@H]4C(=O)N[C@H](C(C)C)C(=O)N5CCC[C@H]5C(=O)N(C)CC(=O)N(C)[C@@H](C(C)C)C(=O)O[C@H]4C)c3nc-2c(C(=O)N[C@@H]2C(=O)N[C@H](C(C)C)C(=O)N3CCC[C@H]3C(=O)N(C)CC(=O)N(C)[C@@H](C(C)C)C(=O)O[C@H]2C)c(N)c1=O (I: [aThr][dV]P[Sar][NMeV] / II: [aThr][dV]P[Sar][NMeV]; ester I:1-I:C, II:1-II:C; linker I:N-II:N via Actinocin(1to9))")
"active"
>>> group_label("Nc1cccc(/C=C/CN2CCN(CCOC(c3ccccc3)c3ccccc3)CC2)c1")
"inactive"
>>> group_label("O=C(OCC1CO1)c1cccs1 (stereo unspecified)")
"inactive"
>>> group_label("c1ccc(-c2nnc(-c3nn(-c4ccccc4)c4nc5ccccc5nc34)o2)cc1")
"inactive"
>>> group_label("[O-]c1c[n+](CCCC[n+]2cc([O-])on2)no1")
"inactive"
>>> group_label("Cc1c(C2Cc3ccccc3N2C(=O)/C=C\\C(=O)O)c2ccccc2n1C (stereo unspecified)")
"inactive"
>>> group_label("Cc1cn(S(=O)(=O)c2ccccc2)c2c(OCc3ccccc3)cc(NS(C)(=O)=O)cc12")
"inactive"
>>> group_label("C=C1C(=O)OC2C3C(=C)[C@@H](OC(C)=O)CC3C(C)=CC(OC(=O)C(C)(OC(C)=O)C(C)OC(C)=O)[C@@H]12 (stereo partly specified)")
"inactive"
>>> group_label("COC(=O)c1cc(C(=CCC[C@H]2CC[C@@]3(C)C(CCC4C3CC[C@@]3(C)C4CC[C@@H]3C(C)CCCC(C)C)C2)c2cc(Cl)c(O)c(C(=O)OC)c2)cc(Cl)c1O (stereo partly specified)")
"inactive"

###

Tested on: K562
Assay: NCI tumour cell line growth inhibition, 48 h
Calls of active or inactive are those of the source. No stated cut-off is given here; in the data, active = GI50 up to about 1.1 µM and inactive = higher. Square brackets hold non-standard residues; d marks the D form. Peptide text beside a SMILES is read from it. * marks the point of attachment. X26 = COC1=CC(=O)N(C(=O)[C@@H](O*)C(C)C)[C@H]1Cc1ccccc1; NMeL = CN[C@@H](CC(C)C)C(=O)O; Hexanoyl = CCCCCC(=O)*
GI50 overview
Measurement kind: GI50

>>> value_measured("CC(=O)C(=[N+]=[N-])C(=O)N1CCOC1=O")
"> 10 µM (inactive)"
>>> value_measured("CC(C)(C)OC(=O)N1N=NC2C3OC(CC3=O)C21 (centres undefined)")
"> 100 µM (inactive)"
>>> value_measured("CC1(C)OC2[C@@H](CO[C@@]3([C@H]4OC(C)(C)O[C@@H]4CO)OC(C)(C)O[C@@H]23)O1 (some centres undefined)")
"> 100 µM (inactive)"
>>> value_measured("CCOC(=O)c1cc(C2=CCNC2=O)c(-c2cc(C)no2)[nH]1")
"34.8 µM (inactive)"
>>> value_measured("CCOP(=O)(OCC)C(Nc1cccc(F)c1)c1ccc(N(C)C)cc1 (centres undefined)")
"49.1 µM (inactive)"
>>> value_measured("COC(=O)C1CCC(=O)N1CN(C(C)=O)c1ccccc1 (centres undefined)")
"> 100 µM (inactive)"
>>> value_measured("Nc1c(-c2ccc(Br)cc2)[n+]([O-])c2ccccc2[n+]1[O-]")
"64.9 µM (inactive)"
>>> value_measured("COc1cccc(C2CC(C)(N3CCCC3)Oc3cc4c(cc32)OCO4)c1O (centres undefined)")
"9.31 µM (inactive)"
>>> value_measured("CCCCCC(=O)N[C@H](C(=O)N[C@H](C(=O)N(C)[C@@H](CC(C)C)C(=O)N1CCC[C@H]1C(=O)N1CCC[C@H]1C(=O)O[C@H](C(=O)N1C(=O)C=C(OC)[C@@H]1Cc1ccccc1)C(C)C)C(C)C)C(C)C (Hexanoyl-VV[NMeL]PP-X26)")
"10.3 µM (inactive)"
>>> value_measured("COc1ccc(C=O)cc1OS(=O)(=O)C(F)(F)C(F)(F)C(F)(F)C(F)(F)F")
"3.52 µM (inactive)"
>>> value_measured("Cc1ccc(OC(=O)N2C/C(=C\\c3ccccc3)C(=O)/C(=C/c3ccccc3)C2)cc1")
"3.94 µM (inactive)"
>>> value_measured("O=C1C2C=CC(C2)C(c2ccc(O)cc2)N1O (centres undefined)")
"> 100 µM (inactive)"
>>> value_measured("Nc1ccc2nc3ccc(=O)cc-3n(-c3ccccc3)c2c1")
"> 100 µM (inactive)"
>>> value_measured("CC(=O)N1C(C(=O)NNc2ccccc2)CSC1c1ccccc1 (centres undefined)")
"3.42 µM (inactive)"
